The origin of these recorded values is patent US7468391B2.

Reported RAR β (EFFICACY) by item:
# target.or.system: RAR β (Homo sapiens)
# Sequence (P10826 1-455): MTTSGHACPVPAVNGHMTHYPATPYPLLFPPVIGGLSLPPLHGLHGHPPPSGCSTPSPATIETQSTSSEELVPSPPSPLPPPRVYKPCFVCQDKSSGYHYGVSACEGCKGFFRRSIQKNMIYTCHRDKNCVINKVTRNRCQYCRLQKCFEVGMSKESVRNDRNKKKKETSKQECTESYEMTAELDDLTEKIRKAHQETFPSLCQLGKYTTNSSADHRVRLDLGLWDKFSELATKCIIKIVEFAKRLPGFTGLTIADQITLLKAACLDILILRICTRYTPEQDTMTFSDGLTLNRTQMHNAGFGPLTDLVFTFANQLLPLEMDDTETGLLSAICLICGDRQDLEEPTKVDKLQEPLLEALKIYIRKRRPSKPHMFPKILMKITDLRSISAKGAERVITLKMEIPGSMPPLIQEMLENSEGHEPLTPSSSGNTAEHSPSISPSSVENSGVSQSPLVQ
# test.protocol: RAR β EC50/(efficacy)
# Assay type: cell-based
# protocol.conditions: value in brackets of cell EC50/(EFFICACY)/Kd

For CCOC(=O)c1cc(C#Cc2ccc(CC(=O)O)cc2)cc2c1C(N(C)C1CC1)CCC2(C)C (centres unmarked) the compound record lists RAR β (EFFICACY) as 30

For COc1cc(C#CC2=CCC(/C=C(\C)C(=O)O)C=C2)cc2c1C(N(C)C1CC1)CCC2(C)C (centres unmarked) the compound record lists RAR β (EFFICACY) as 15

For CCOC(=O)C1=CCC(C)(C)c2cc(C#Cc3ccc(CC(=O)O)cc3)c(C)cc21 the compound record lists RAR β (EFFICACY) as 35

For CC1(C)CC(C)(C)c2cc(C#Cc3ccc(CC(=O)O)c(F)c3)cc(O)c2O1 the compound record lists RAR β (EFFICACY) as 15

For CCOC(=O)C1=C(C)CC(C)(C)c2cc(C#Cc3ccc(CC(=O)O)c(F)c3)ccc21 the compound record lists RAR β (EFFICACY) as 35

For CCOC(=O)C1CCC(C)(C)c2cc(C#Cc3ccc(CC(=O)O)cc3)c(C)cc21 (centres unmarked) the compound record lists RAR β (EFFICACY) as 50

For CC(C)c1cc(C(=O)Oc2ccc(/C=C/C(=O)O)cc2)cc2c1OC(C)(C)CC2(C)C the compound record lists RAR β (EFFICACY) as 35
